Readings of pKi for the listed molecules
- assay target: UniProt:P63000
pKi: −log10 of the molar value.

molecule	pKi
CC(=O)Oc1ccc(C2=NN(c3ccccc3)C(c3ccccc3)C2)cc1 (stereo unspecified)	6.28
O=C(O)c1ccc(N2N=C(c3ccccc3)CC2c2ccccc2)cc1 (stereo unspecified)	5.29
COc1ccc(C2CC(c3ccccc3)=NN2c2ccc(S(N)(=O)=O)cc2)cc1OC (stereo unspecified)	5.91
COc1ccc(C2CC(c3ccc(F)cc3)=NN2c2cc(Cl)ccc2Cl)cc1 (stereo unspecified)	8.00
Brc1ccc(N2N=C(c3ccccc3)CC2c2ccccc2)cc1 (stereo unspecified)	6.05
CN(C)c1ccc(C2CC(c3ccccc3)=NN2c2ccc([N+](=O)[O-])cc2)cc1 (stereo unspecified)	5.72
